system.tested: T1, human wild-type, full length Gasdermin D (GSDMD 1-484), chemically biotinylated (Homo sapiens (Human)., UniProt P57764, chemically biotinylated (ChromaLink Biotin), approximately 2 biotins per molecule)
T1 construct: human Gasdermin D (GSDMD), wild type, full length, residues 1-484; also called human GSDMD wt, f.l; hGSDMD; source: E. coli Rosetta (DE3), purified (Ni-NTA, SUMO cleavage by ULP1, second Ni-NTA, SEC S200); chemically biotinylated (ChromaLink Biotin Labeling kit); not shown: His6-SUMO, N-terminal, cleaved
assay.notes: SPR; Biacore 8K; chemically biotinylated full length GSDMD captured on Series S Sensor Chip CAP; nanobodies injected as analytes, multi-cycle kinetics (VHH-1, -2, -3, -5: 0.5-32 nM; VHH-4, -6: 64-4096 nM); 25 °C; 20 mM HEPES pH 8.0, 200 mM NaCl, 5 mM DTT, 0.05% Tween20; flow 30 µl/min; association 120 s, dissociation 300 s; 1:1 binding model
test.context: both partners purified
assay.endpoint: koff (s⁻¹)
Your answer should be a plain number; it is taken to be in s⁻¹.

// worked examples, koff included
VHH_(GSDMD-1) (VHH, also called VHH-1; source: E. coli WK6, periplasmic expression (pHEN6), purified (Ni-NTA, SEC S75)) VHH: QVQLVESGGALVQPGGSLRLSCSASGFTFSKYLMSWYRQAPGKERELVATITTAGGNTNYADSVKGRFTISRDNAKNTVYLQMNSLKPEDTAVYYCKASGGTIRTVNETYWGQGTQVTVSS
0.00198
VHH_(GSDMD-3) (VHH, also called VHH-3; source: E. coli WK6, periplasmic expression (pHEN6), purified (Ni-NTA, SEC S75)) VHH: QVQLVETGGGLVQPGGSLRLSCAASGFTLDIYNMGWFRQAPGKEREGVSCISSRYGTSTYYADSVKGRFTISRDNAKNTVYLQMNNLKPEDTAVYYCATVSWRFTTNQDVCLTPSVSGYWGQGTQVTVSS
0.00154
VHH_(GSDMD-5) (VHH, also called VHH-5; source: E. coli WK6, periplasmic expression (pHEN6), purified (Ni-NTA, SEC S75)) VHH: QVQLVETGGGLVQPGGSLRLSCAASGFVFSINPMNWYRQAPGKERELVAYISMRGSTTNYADSVKGRFIISRDNAKNTLYLQMNSLKPEDTAVYYCNAPSRSVWGQGTQVTVSS
0.00149
VHH_(GSDMD-6) (VHH, also called VHH-6; source: E. coli WK6, periplasmic expression (pHEN6), purified (Ni-NTA, SEC S75)) VHH: QVQLVETGGGLVQPGGSLRLSCTASGFIFSANQMNWVRQAPGKGLEWLSGISTRGDTTSYADSVKGRFTISRDNAKNTLYLQMNSLQPDDTAVYFCARVCIRGPEPKLRCDDWGQGTQVTVSS
0.0201

Entry VHH_(GSDMD-2) (VHH, also called VHH-2; source: E. coli WK6, periplasmic expression (pHEN6), purified (Ni-NTA, SEC S75)) VHH: QVQLVESGGGLVQPGGSLRLSCVDSRSWINVYGANWYRQAPGKERELVAALTSGGTTNYADSVKGRFTISRDNAKNTVYLQMRDLKPEDTAVYYCNLERYTGSSVYPWGQGTQVTVSS : reported koff = ?
0.000951
